# Test system: IL-6
# Protocol Summary: Inhibition of IL-6 production by TNFα stimulation in synovial fibroblasts derived from a rheumatoid patient (ELISA)
# Assay type: cell-based, human
# Conditions: synovial fibroblasts, 10 ng/ml TNFα, 3 days; read-out: Inhibition against Mediator Release IC50(nM) IL-6
Output: class label from IC50. Mapping: low band (below 400 nM), middle band (400 nM to below 600 nM), high band (600 nM or more)

Would you please look over these solved cases?
Exam item: assign O=C(Nc1cc(C(F)(F)F)cc(C(F)(F)F)c1)c1cc(Br)ccc1O [compound 6] to the correct category.
low band

Exam item: assign O=C(Nc1cc(C(F)(F)F)cc(C(F)(F)F)c1)c1cc(C(F)(F)F)ccc1O [Compound No. 25] to the correct category.
middle band

Exam item: assign O=C(Nc1cc(Cl)cc(Cl)c1)c1cc(Cl)ccc1O [Compound No. 125] to the correct category.
high band

Exam item: assign O=C(Nc1cc(C(F)(F)F)cc(C(F)(F)F)c1)c1c(O)ccc2ccccc12 [Compound No. 73] to the correct category.
low band

Further cases:
Exam item: assign O=C(Nc1cc(C(F)(F)F)cc(C(F)(F)F)c1)c1cc(-n2cccc2)ccc1O [Compound No. 27] to the correct category.
low band

Exam item: assign O=C(Nc1cc(Br)cc(C(F)(F)F)c1)c1cc(Br)ccc1O [Compound No. 86] to the correct category.
middle band

Exam item: assign O=C(Nc1nc(C(F)(F)F)c(Br)s1)c1cc(Br)ccc1O [Compound No. 187] to the correct category.
high band

Exam item: assign CC(C)(C)c1cc(NC(=O)c2cc(Br)ccc2O)cc(C(C)(C)C)c1 [Compound No. 140] to the correct category.
high band

Exam item: assign O=C(Nc1cc(C(F)(F)F)ccc1Cl)c1cc(Br)ccc1O [Compound No. 90] to the correct category.
low band

Exam item: assign COc1cc(NC(=O)c2cc(Br)ccc2O)cc(C(F)(F)F)c1 [Compound No. 93] to the correct category.
low band

----------
# System: NF-κ B
# Protocol Summary: Inhibitory activity of NF-κ B activation, luciferase reporter assay in HepG2 under TNF-α stimulation
# Format: cell-based, human
# Conditions: 10 μg/mL; HepG2, TNF-α (40 ng/ml), 4 hours
Recorded Endpoint: Inhibitory Ratio of NF-κ B Activation(%) Drug Concentration 10 μg/mL
Field format: number, assumed %, no unit text.

Below: 3 compounds and their reported Inhibitory Ratio of NF-κ B Activation(%) Drug Concentration 10 μg/mL.
Look at this compound and give its reported Inhibitory Ratio of NF-κ B Activation(%) Drug Concentration 10 μg/mL. Cc1sc(NC(=O)c2cc(Br)ccc2O)nc1-c1ccccc1 [Compound No. 192]
94.4

Look at this compound and give its reported Inhibitory Ratio of NF-κ B Activation(%) Drug Concentration 10 μg/mL. CC(=O)Oc1ccc(Cl)cc1C(=O)Nc1cc(C(F)(F)F)ccc1Cl [Compound No. 89]
97.4

Look at this compound and give its reported Inhibitory Ratio of NF-κ B Activation(%) Drug Concentration 10 μg/mL. O=C(Nc1cc(Cl)cc(Cl)c1)c1cc(I)ccc1O [Compound No. 127]
97.1

Further cases:
Look at this compound and give its reported Inhibitory Ratio of NF-κ B Activation(%) Drug Concentration 10 μg/mL. COc1ccc(Oc2ccc(C(F)(F)F)cc2NC(=O)c2cc(Cl)ccc2O)cc1 [Compound No. 253]
99.5

Look at this compound and give its reported Inhibitory Ratio of NF-κ B Activation(%) Drug Concentration 10 μg/mL. Cc1cc(C)cc(NC(=O)c2cc(Br)ccc2O)c1 [Compound No. 137]
92.6

Look at this compound and give its reported Inhibitory Ratio of NF-κ B Activation(%) Drug Concentration 10 μg/mL. O=C(Nc1cc(C(F)(F)F)ccc1F)c1cc(Cl)ccc1O [Compound No. 87]
95.9

Look at this compound and give its reported Inhibitory Ratio of NF-κ B Activation(%) Drug Concentration 10 μg/mL. O=C(Nc1cc(C(F)(F)F)cc(C(F)(F)F)c1)c1ccc(O)cc1O [Compound No. 55]
88.6

Look at this compound and give its reported Inhibitory Ratio of NF-κ B Activation(%) Drug Concentration 10 μg/mL. COc1ccc(O)c(C(=O)Nc2cc(C(F)(F)F)ccc2Cl)c1 [Compound No. 101]
82.0

----------
# System: NF-κ B
# Protocol Summary: Inhibitory activity of NF-κ B activation, luciferase reporter assay in HepG2 under TNF-α stimulation
# Assay type: cell-based, human
# Conditions: 10 μg/mL; HepG2, TNF-α (40 ng/ml), 4 hours
Recorded Endpoint: Inhibitory Ratio of NF-κ B Activation(%) Drug Concentration 10 μg/mL
Please don't drop the unit; write it after the number.

Below: 4 compounds and their reported Inhibitory Ratio of NF-κ B Activation(%) Drug Concentration 10 μg/mL.
Look at this compound and give its reported Inhibitory Ratio of NF-κ B Activation(%) Drug Concentration 10 μg/mL. O=C(Nc1cc(C(F)(F)F)ccc1C(F)(F)F)c1cc(Br)ccc1O [Compound No. 268]
98.4%

Look at this compound and give its reported Inhibitory Ratio of NF-κ B Activation(%) Drug Concentration 10 μg/mL. O=C(Nc1nc(Cc2ccccc2)c(-c2ccccc2)s1)c1cc(Br)ccc1O
95.0%

Look at this compound and give its reported Inhibitory Ratio of NF-κ B Activation(%) Drug Concentration 10 μg/mL. O=C(Nc1cc(Br)cc(C(F)(F)F)c1)c1cc(Cl)ccc1O
99.2%

Look at this compound and give its reported Inhibitory Ratio of NF-κ B Activation(%) Drug Concentration 10 μg/mL. O=C(Nc1ccccc1)c1ccc(Cl)c(NC(=O)c2cc(Cl)ccc2O)c1
98.8%

From here, focus on the item given below.
Look at this compound and give its reported Inhibitory Ratio of NF-κ B Activation(%) Drug Concentration 10 μg/mL. O=C(Nc1cc(C(F)(F)F)cc(C(F)(F)F)c1)c1cccc(Cl)c1O
94.1%

----------
# Test system: NF-κ B
# Protocol Summary: Inhibitory activity of NF-κ B activation, luciferase reporter assay in HepG2 under TNF-α stimulation
# Type: cell-based, human
# Conditions: 10 μg/mL; HepG2, TNF-α (40 ng/ml), 4 hours
Recorded Endpoint: Inhibitory Ratio of NF-κ B Activation(%) Drug Concentration 10 μg/mL
Field format: number, assumed %, no unit text.

Below: 2 molecules and their reported Inhibitory Ratio of NF-κ B Activation(%) Drug Concentration 10 μg/mL.
For the record CCOC(=O)c1sc(NC(=O)c2cc(Cl)ccc2O)nc1-c1ccccc1 , what value of Inhibitory Ratio of NF-κ B Activation(%) Drug Concentration 10 μg/mL is listed for NF-κ B?
94.2

For the record O=C(Nc1cc(C(F)(F)F)ccc1Oc1ccc2ccccc2c1)c1cc(Cl)ccc1O , what value of Inhibitory Ratio of NF-κ B Activation(%) Drug Concentration 10 μg/mL is listed for NF-κ B?
98.7

Further cases:
For the record O=C(Nc1cc(-c2ccccc2)[nH]n1)c1cc(Br)ccc1O , what value of Inhibitory Ratio of NF-κ B Activation(%) Drug Concentration 10 μg/mL is listed for NF-κ B?
84.7

For the record O=C(Nc1cc(C(F)(F)F)cc(C(F)(F)F)c1)c1cc(C=Cc2ccccc2)ccc1O , what value of Inhibitory Ratio of NF-κ B Activation(%) Drug Concentration 10 μg/mL is listed for NF-κ B?
96.9

For the record O=C(Nc1cnc2ccccc2c1)c1cc(Cl)ccc1O , what value of Inhibitory Ratio of NF-κ B Activation(%) Drug Concentration 10 μg/mL is listed for NF-κ B?
85.7

For the record Cc1ccc(O)c(C(=O)Nc2cc(C(F)(F)F)ccc2C)c1 , what value of Inhibitory Ratio of NF-κ B Activation(%) Drug Concentration 10 μg/mL is listed for NF-κ B?
98.3

----------
# System: PGE2
# Protocol Summary: Inhibition of PGE2 production by TNFα stimulation in synovial fibroblasts derived from a rheumatoid patient (EIA)
# Format: cell-based, human
# Conditions: synovial fibroblasts, 10 ng/ml TNFα, 3 days; read-out: Inhibition against Mediator Release IC50(nM) PGE2
# key: entry, value: IC50
Field format: number, assumed nM, no unit text.

Below: 5 compounds and their reported IC50.
Look at this compound and give its reported IC50. O=C(Nc1cc(Br)cc(C(F)(F)F)c1)c1cc(Br)ccc1O [Compound No. 86]
562

Look at this compound and give its reported IC50. O=C(Nc1cc(C(F)(F)F)cc(C(F)(F)F)c1)c1c(O)ccc2ccccc12 [Compound No. 73]
662

Look at this compound and give its reported IC50. COc1cc(NC(=O)c2cc(Br)ccc2O)cc(C(F)(F)F)c1 [Compound No. 93]
47

Look at this compound and give its reported IC50. CC(C)(C)c1cc(NC(=O)c2cc(Br)ccc2O)cc(C(C)(C)C)c1 [Compound No. 140]
21

Look at this compound and give its reported IC50. O=C(Nc1nc(C(F)(F)F)c(Br)s1)c1cc(Br)ccc1O [Compound No. 187]
414

From here, focus on the item given below.
Look at this compound and give its reported IC50. O=C(Nc1cc(Cl)cc(Cl)c1)c1cc(Cl)ccc1O [Compound No. 125]
966

Taken from patent US20060089395A1.
